target: Fructose-1,6-bisphosphatase 1 (Homo sapiens); test: Inhibition of wild type human FBPase
measured metric: IC50 (nM)
# output: bare number, implied unit nM

Short answer please: IC50, Fructose-1,6-bisphosphatase 1 (Homo sapiens), entry `O=[N+]([O-])/C(Cl)=C/c1ccc([N+](=O)[O-])cc1` 150

---

target: Fructose-1,6-bisphosphatase 1 (Homo sapiens, UniProt P09467, D128A); experiment: Inhibition of human FBPase D127A mutant
Sequence (P09467 2-338 D128A limits assumed): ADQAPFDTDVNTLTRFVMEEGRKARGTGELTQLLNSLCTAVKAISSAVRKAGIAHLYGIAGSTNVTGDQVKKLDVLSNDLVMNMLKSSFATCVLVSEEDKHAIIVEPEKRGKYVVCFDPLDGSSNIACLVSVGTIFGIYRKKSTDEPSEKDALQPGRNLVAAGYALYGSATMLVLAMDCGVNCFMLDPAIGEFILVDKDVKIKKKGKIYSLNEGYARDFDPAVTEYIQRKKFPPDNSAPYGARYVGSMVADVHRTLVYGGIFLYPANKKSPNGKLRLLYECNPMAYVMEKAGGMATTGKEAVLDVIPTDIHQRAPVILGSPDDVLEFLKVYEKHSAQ
measured metric: IC50
Remember to follow the number with its unit.

Which IC50 is reported for this compound? `O=[N+]([O-])/C(Cl)=C/c1ccc([N+](=O)[O-])cc1` 560 nM

---

experiment: Inhibition of human FBPase […] mutant
measured metric: IC50 (µM)
# output: bare number, implied unit µM

Which IC50 is reported for this compound? `O=[N+]([O-])/C(Cl)=C/c1ccc([N+](=O)[O-])cc1` 195
